The molecules listed here are annotated with their TGI.
Tested on: RPMI-8226 leukemia
Test: NCI tumour cell line growth inhibition, 48 h
measured-quantity: TGI

{"columns": ["molecule", "result"],
 "data": [
  ["CC(=O)O/N=C/c1c2ccccc2cc2ccccc12", "> 100 µM"],
  ["CCOC(=O)NC(=O)c1cn(C2CCCCC2)c(=O)[nH]c1=O", "> 100 µM"],
  ["O=C(Nc1cc(Cl)ccc1O)c1ccc(Nc2ccnc(C(F)(F)F)c2)cc1", "3.83 µM"],
  ["O=[N+]([O-])c1ccc(/C=C/c2cc(-c3ccccc3)nc3ccc4ccccc4c23)cc1", "> 100 µM"],
  ["COc1cc2cc(Oc3ccc(NC(=O)c4cc(C(F)(F)F)cc(C(F)(F)F)c4)cc3)c(C)nc2cc1OC", "> 50 µM"],
  ["C/C1=C\\CC[C@@]2(C)O[C@@H]2C[C@@H](C2(C)CO2)CC/C(C)=C/CC1 (some centres undefined)", "> 100 µM"],
  ["Cc1[nH]c2ccccc2c1C1Cc2ccccc2N1C(=O)C#Cc1ccc([N+](=O)[O-])cc1 (centres undefined)", "> 100 µM"],
  ["CCCC/C(=C\\C1=C(C)C(=O)C(OC)=C(OC)C1=O)C(=O)O", "> 100 µM"],
  ["O=C(Oc1cc(=O)c(OC(=O)c2ccccc2)co1)c1ccccc1", "> 100 µM"],
  ["COC(=O)/C(=N/O)C(C(=O)C=C(C)C)C(=O)C(=O)Nc1nc2ccc([N+](=O)[O-])cc2s1 (centres undefined)", "> 100 µM"],
  ["COC(=O)CN1c2nc(C#N)c(C#N)nc2N(CC(=O)OC)c2nc(C#N)c(C#N)nc21", "> 100 µM"],
  ["CCC1=CC2CN3Cn4c(c(COCc5c6n(c7ccccc57)CN5CC7C=C(CC)C5C6(C(=O)OC)C7)c5ccccc54)C(C(=O)OC)(C2)C13", "> 100 µM"],
  ["COC(=O)CCc1cc(OC)c2c(c1)[C@H](C(=O)OC)[C@@H](c1ccc(O)c(OC)c1)O2", "55.5 µM"],
  ["COc1nc2ncc([C@@H](OC(C)=O)[C@@H](COC(C)=O)OC(C)=O)nc2c(=O)[nH]1", "> 100 µM"],
  ["O=C1CCCN1c1ccccc1I(=O)=O", "> 100 µM"],
  ["N#CC(=Nc1ccccc1N(C(=O)c1ccccc1)C(=O)c1ccccc1)c1ccccc1", "> 81.4 µM"],
  ["COc1cc2c(cc1OC)[C@H]1CN3CCC[C@H]3C=C1c1ccc(OC)c(O)c1-2", "0.0012 µM"],
  ["C[C@]12CC[C@@H]3c4ccc(O)cc4CC[C@H]3[C@@H]1C/C(=C\\c1ccncc1)[C@@H]2O", "24.6 µM"],
  ["CCOC(=O)C(Cl)(Cl)/S(=N\\S(=O)(=O)c1ccccc1)NC(=O)c1ccccc1 (centres undefined)", "> 100 µM"],
  ["Cc1cc2c([N+](=O)[O-])cc3c(c2o1)C(=O)C=CC3=O", "> 100 µM"],
  ["Cc1cc(Nc2nc(-c3cn(-c4ccc(Cl)cc4)nn3)nc3ccccc23)n[nH]1", "> 50 µM"],
  ["C(=Nc1ccc(-c2nc3ccccc3o2)cc1)c1ccco1", "36.9 µM"],
  ["CC(C)(C)OC(=O)NCCC(N)=S", "> 100 µM"],
  ["COc1cc(-c2cc(=O)c3cc4c(=O)cc(-c5cc(OC)c(OC)c(OC)c5)oc4cc3o2)cc(OC)c1OC", "> 100 µM"]
]}
